experimental protocol: qHTS assay to test for compound auto fluorescence at 535 nm (green) in HEK293 cell free culture (AID 720682); also: % is scaled to controls: 0 for no effect and ±100 for the full control effect
condition description: cell-free medium, green autofluorescence 485/535 nm; series mostly up to 91.3 µM
Calls of active or inactive are those of the source. Calls follow the shape of the dose curve; as a rule, active = well fitted curve in the direction sought with a large enough effect in the repeat runs; inconclusive = weak or mixed curves; inactive = flat fitted curve, though single readings scatter.
parameter measured: activity change

As a guide, the following entries are already answered.
Which activity change reading was recorded for the compound COc1cccc(C=O)c1 ? inactive

Another compound to check: COc1ccc(C=O)cc1O inactive

Now consider O=[N+]([O-])c1cccc(CCl)c1 and answer again. inactive

Can you check c1ccc2c(c1)CCNC2 next? inactive

Item: CCc1cc(OC)c(C[C@H](C)N)cc1OC inactive

More entries:
Requested read-out: activity change. Entry: CC[C@H](N)c1ccccc1 inactive

Request: COc1ccccc1OC inactive

* * *

target under test: Nuclear receptor subfamily 1 group I member 3 (Homo sapiens) (UniProt Q14994)
Sequence (Q14994 whole entry, looked up): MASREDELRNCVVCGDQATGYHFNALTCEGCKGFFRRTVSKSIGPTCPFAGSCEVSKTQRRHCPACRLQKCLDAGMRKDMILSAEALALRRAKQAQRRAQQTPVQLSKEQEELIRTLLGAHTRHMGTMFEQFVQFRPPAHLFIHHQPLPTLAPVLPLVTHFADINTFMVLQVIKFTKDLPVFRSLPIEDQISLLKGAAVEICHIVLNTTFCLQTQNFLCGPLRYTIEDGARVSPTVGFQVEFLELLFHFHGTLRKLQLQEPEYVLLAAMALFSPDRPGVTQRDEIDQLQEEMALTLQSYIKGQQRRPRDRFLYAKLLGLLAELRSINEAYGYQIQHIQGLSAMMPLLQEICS
experimental protocol: qHTS assay to identify small molecule agonists of the constitutive androstane receptor (CAR) signaling pathway (AID 1224839);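 also: HepG2 cells stably carrying human CAR and a CYP2B6 luciferase reporter; % is scaled to controls: 0 for no effect and ±100 for the full control effect; nearly all actives have a fitted effect of over 15% in size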
condition description: HepG2 hCAR CYP2B6-luciferase, agonist mode, 24 h; series mostly up to 92.4 µM
Results filed as inconclusive are left out. Calls of active or inactive are those of the source. Calls come from the whole dose curve; as a rule, active = well fitted activation curve with a large enough effect in the repeat runs; inconclusive = weak or mixed curves; inactive = no such curve, though single readings can be large or run the other way.
Response enum: 1 = active, -1 = inactive

I'd appreciate the recorded outcome for Nc1c(Cl)c(F)nc(OCC(=O)O)c1Cl from this test. -1

Another: C/C=C/CC#N -1

// query: C[C@]12C=CC(=O)C=C1CC[C@@H]1[C@@H]2CC[C@@]2(C)[C@H]1CC[C@]2(C)O -1

Next entry: O=C(O)c1c(Cl)ccc2cc(Cl)cnc12 -1

And the next one, N=C(N)[Se] ? -1

---
Which outcome was assigned to CCCOc1nn(C(=O)NS(=O)(=O)c2ccccc2C(=O)OC)c(=O)n1C in this test? -1

Entry ClCCCCl please -1

Then NC1(c2ccccc2)CCCCC1 ? -1

Now consider CCC(CC)(CNC(=O)CCCO)c1cccc(OC)c1 and answer again. -1

* * *

experimental protocol: qHTS assay to identify small molecule agonists of the AP-1 signaling pathway (AID 1159526); also: % is scaled to controls: 0 for no effect and ±100 for the full control effect
condition description: ME-180 (cervical carcinoma) AP-1-bla reporter, beta-lactamase FRET ratio, 5 h; series mostly up to 76.8 µM
Records with an inconclusive call do not appear. The source made the active and inactive calls. Calls come from the whole dose curve.
parameter measured: activation

The following compounds have reported results that may help.
Quick one: activation of ClCCN1CCCC1 ? inactive

Here is the next compound: CC(C)(C)C(=O)C(Cl)Cl inactive

Then what about the compound N[C@@H](Cc1ccc(Oc2cc(I)c(O)c(I)c2)c(I)c1)C(=O)O ? inactive

Request: CC(C)NCC(O)c1ccc([N+](=O)[O-])cc1 (stereo not drawn) inactive

What about CC#Cc1cc(C)nc(Nc2ccccc2)n1 ? inactive

Further cases:
So what's the measured activation for this one? CCC1(c2cccc(O)c2)CCCCN(C)C1 (stereo not drawn) inactive

Next compound: CCOP(=S)(OCC)Oc1ccc(Cl)cc1Cl inactive

* * *

target under test: Estrogen receptor (Homo sapiens)
experimental protocol: qHTS assay to identify small molecule antagonists of the estrogen receptor alpha (ER-alpha) signaling pathway (AID 743069); also: % is scaled to controls: 0 for no effect and ±100 for the full control effect
condition description: HEK293 ER-alpha-UAS-bla, beta-lactamase ratio, antagonist mode; series mostly up to 69.4 µM
Inconclusive results are not listed. Activity calls are given as the source filed them. The call rests on the fitted dose curve; in most records, active means well fitted curve in the direction sought with a large enough effect in the signal ratio in the repeat runs (not every such curve was filed as active); inconclusive means weak or mixed curves, or effect the other way; inactive means no such curve, though single readings can be large or run the other way; the % refers to the signal ratio.
parameter measured: outcome

Form field: outcome recorded for C=C(Cl)CCl with Estrogen receptor (Homo sapiens) (enter value) inactive

And then NC1(c2ccccc2)CCCCC1 , what is it? inactive

Now the molecule COC(=O)c1ccc(CBr)cc1 inactive
